TGI overview
System: SNB-19 CNS
Assay: NCI tumour cell line growth inhibition, 48 h

Please review the following examples before continuing.
C#CCC(O)c1ccc(OC)c(OCc2ccccc2)c1 (stereo not drawn)
> 100 µM
O=C1CC[C@@H](S(=O)(=O)c2ccccc2)[C@H](/C=C/c2ccccc2)O1
> 100 µM

Entry C[C@H]1[C@H]2[C@H](C[C@@]3(C)C4=CC[C@H]5C(C)(C)[C@@H](OC6OCC(O)C(O)C6O)CC[C@@]56C[C@@]46CC[C@]23C)O[C@@]2(O)[C@@H]1OC(C)(C)[C@H]2O (stereo partly drawn) has what TGI? 8.4 µM

====

TGI overview
System: EKVX NSCLC
Experiment: NCI tumour cell line growth inhibition, 48 h

Please review the following examples before continuing.
C=CCc1cc(OC)c(O)c(C(=O)/C=C/c2ccc(OC)c(OC)c2)c1
52.5 µM
Oc1ccc(I)c2cccnc12
65.2 µM
CCc1n[nH]c(=O)n1-n1c(C)ccc1C
> 100 µM

Entry O=C(Cn1c2ccc(Br)cc2c2nc3ccccc3nc21)NNC(=O)NC1CCCCC1 has what TGI? > 100 µM

Entry S=c1[nH]nc(COc2ccc(Cl)cc2)n1-c1ccccc1 has what TGI? > 100 µM

====

Tested on: ACHN renal
Assay: NCI tumour cell line growth inhibition, 48 h
OBSERVATION_TYPE: TGI

Please review the following examples before continuing.
Cc1cc(NS(=O)(=O)c2ccc(NC(=O)c3cccc4c(Nc5ccc(S(=O)(=O)Nc6cc(C)on6)cc5)c5ccc(Cl)cc5nc34)cc2)no1
> 100 µM
C=C(CC)C(=O)c1ccc(OCC(=O)O)c(Cl)c1Cl
> 72.9 µM
CN(C)/C=N/c1cc(=O)n(C)c(=O)n1C
> 100 µM

Entry CCOC(=O)CCCc1cc(=O)c2c(C)c3[nH]c4ccc(Cl)cc4c3c(C)c2[nH]1 has what TGI? 80.3 µM

Entry Cc1ccc(S(=O)(=O)NCCCSCCN)cc1 has what TGI? > 100 µM

Entry CCc1n[nH]c(=O)n1-n1c(C)ccc1C has what TGI? > 100 µM

Entry O=C1CC[C@@H](S(=O)(=O)c2ccccc2)[C@H](/C=C/c2ccccc2)O1 has what TGI? > 100 µM

====

Tested on: UO-31 renal
Experiment: NCI tumour cell line growth inhibition, 48 h
OBSERVATION_TYPE: TGI

Please review the following examples before continuing.
COc1ccc(NCc2cccc3c(=O)c4ccc(Cl)cc4oc23)cc1
> 100 µM
c1ccc(C2=Nc3ccccc3N3CNN=C23)cc1
> 100 µM
Cc1c(N)c(C#N)c2n(C)c3ncccc3n2c1=O
> 100 µM

Entry COC(=O)NCCc1[nH]nc2c1C(=O)C=C(Nc1ccccc1OC)C2=O has what TGI? > 100 µM

Entry [pH]1p2[pH]p3p1p3[pH]2.c1cc[c]([Ge]([c]2ccccc2)[c]2ccccc2)cc1.c1cc[c]([Ge]([c]2ccccc2)[c]2ccccc2)cc1.c1cc[c]([Ge]([c]2ccccc2)[c]2ccccc2)cc1 has what TGI? 29.8 µM

Entry CCc1cccc(C(C)C)c1NC(=O)C(=O)Nn1c(=S)[nH]c2ccccc2c1=O has what TGI? > 100 µM

Entry Nc1nc2c(ncn2C2OC(CO)C(O)C2O)c(=O)o1 (stereo unspecified) has what TGI? > 100 µM

Entry CC(C)=NC(C(=O)O)C(C)(C)S (stereo unspecified) has what TGI? > 100 µM

Entry Cc1cc(C(O)CCCc2ccccc2)cc(C)c1O (stereo unspecified) has what TGI? 60.4 µM

Entry C=C1C2CCCC1C1(S(C)(=O)=O)CCCCC21O (stereo unspecified) has what TGI? > 100 µM

Entry CC1CCC2C(C)C(OC(=O)CCC(=O)O)OC3OC4(C)CCC1C32OO4 (stereo unspecified) has what TGI? 3.88 µM
